# System: tumor cell lines
# ASSAY_INFO: Combination assay (MTT in vitro cell proliferation, combination index)
# Type: cell-based
# CONDITION_DETAILS: HTC116, colon carcinoma; chemotherapeutic alone; read-out: Chemo EC50

COMPOUND: CS(=O)(=O)CCNCc1ccc(-c2ccc3ncnc(Nc4ccc(OCc5cccc(F)c5)c(Cl)c4)c3c2)o1 [lapatinib, reference compound]
UNIT_SYMBOL: µM
EC50: 10

----------
# Test system: panel of 24 kinases
# ASSAY_INFO: Kinase selectivity testing (percentage inhibition of 24 kinases at 1 μM)
# Format: biochemical
# CONDITION_DETAILS: proquinase, MEK1, 1 uM

COMPOUND: FC(F)(F)c1cccc(-n2nnc3cc(Cl)c(NCC4CCNCC4)nc32)c1
% inhibiton at 1 uM MEK1, %: 2
--
COMPOUND: FC(F)(F)Oc1cccc(-n2nnc3cc(Cl)c(NCC4CCNCC4)nc32)c1
% inhibiton at 1 uM MEK1, %: 0
--
COMPOUND: OC1CCC(Nc2ccc3nnn(-c4cccc(OC(F)(F)F)c4)c3n2)CC1 (stereo in doubt)
% inhibiton at 1 uM MEK1, %: 0
--
COMPOUND: FC(F)(F)Oc1cccc(-n2nnc3ccc(NCC4CC5(CCNCC5)C4)nc32)c1
% inhibiton at 1 uM MEK1, %: 0
--
COMPOUND: FC(F)(F)Oc1cccc(-n2nnc3ccc(N4CCCC5(CCCN5)CC4)nc32)c1 (centres unmarked)
% inhibiton at 1 uM MEK1, %: 13
--
COMPOUND: COc1cc(NCC2CCNCC2)nc2c1nnn2-c1cccc(N(C)C)c1
% inhibiton at 1 uM MEK1, %: 7
--
COMPOUND: COc1cc(NCC2CCNCC2)nc2c1nnn2-c1cccc(OC(F)(F)F)c1
% inhibiton at 1 uM MEK1, %: 1
--
COMPOUND: FC(F)(F)Oc1cccc(-n2nnc3ccc(NC4CC5(CCNCC5)C4)nc32)c1
% inhibiton at 1 uM MEK1, %: 0

----------
# System: panel of 24 kinases
# ASSAY_INFO: Kinase selectivity testing (percentage inhibition of 24 kinases at 1 μM)
# Format: biochemical
# CONDITION_DETAILS: proquinase, SGK1, 1 uM
As shown below, each of these compounds has a reported % inhibiton at 1 uM SGK1 value.

COMPOUND: FC(F)(F)c1cccc(-n2nnc3cc(Cl)c(NCC4CCNCC4)nc32)c1
% inhibiton at 1 uM SGK1 (%): 6
//
COMPOUND: FC(F)(F)Oc1cccc(-n2nnc3ccc(NCC4CC5(CCNCC5)C4)nc32)c1
% inhibiton at 1 uM SGK1 (%): 7
//
COMPOUND: OC1CCC(Nc2ccc3nnn(-c4cccc(OC(F)(F)F)c4)c3n2)CC1 (stereo in doubt)
% inhibiton at 1 uM SGK1 (%): 3
//
COMPOUND: COc1cc(NCC2CCNCC2)nc2c1nnn2-c1cccc(N(C)C)c1
% inhibiton at 1 uM SGK1 (%): 9
//
COMPOUND: FC(F)(F)Oc1cccc(-n2nnc3ccc(NC4CC5(CCNCC5)C4)nc32)c1
% inhibiton at 1 uM SGK1 (%): 2
//
COMPOUND: FC(F)(F)Oc1cccc(-n2nnc3ccc(N4CCCC5(CCCN5)CC4)nc32)c1 (centres unmarked)
% inhibiton at 1 uM SGK1 (%): 0
//
COMPOUND: FC(F)(F)Oc1cccc(-n2nnc3cc(Cl)c(NCC4CCNCC4)nc32)c1
% inhibiton at 1 uM SGK1 (%): 7
//
COMPOUND: COc1cc(NCC2CCNCC2)nc2c1nnn2-c1cccc(OC(F)(F)F)c1
% inhibiton at 1 uM SGK1 (%): 6

----------
# System: panel of 24 kinases
# ASSAY_INFO: Kinase selectivity testing (percentage inhibition of 24 kinases at 1 μM)
# Format: biochemical
# CONDITION_DETAILS: proquinase, INS_R, 1 uM
ENDPOINT_LABEL: % inhibiton at 1 uM INS_R

COMPOUND: FC(F)(F)Oc1cccc(-n2nnc3ccc(N4CCCC5(CCCN5)CC4)nc32)c1 (stereo not drawn)
TGT: panel of 24 kinases
ENDPOINT_LABEL: % inhibiton at 1 uM INS_R
REPORTED_RESULT: 12%
//
COMPOUND: FC(F)(F)c1cccc(-n2nnc3cc(Cl)c(NCC4CCNCC4)nc32)c1
TGT: panel of 24 kinases
ENDPOINT_LABEL: % inhibiton at 1 uM INS_R
REPORTED_RESULT: 6%
//
COMPOUND: FC(F)(F)Oc1cccc(-n2nnc3ccc(NC4CC5(CCNCC5)C4)nc32)c1
TGT: panel of 24 kinases
ENDPOINT_LABEL: % inhibiton at 1 uM INS_R
REPORTED_RESULT: 7%

----------
# TGT: UniProt:P36888
# Sequence (P36888 27-993): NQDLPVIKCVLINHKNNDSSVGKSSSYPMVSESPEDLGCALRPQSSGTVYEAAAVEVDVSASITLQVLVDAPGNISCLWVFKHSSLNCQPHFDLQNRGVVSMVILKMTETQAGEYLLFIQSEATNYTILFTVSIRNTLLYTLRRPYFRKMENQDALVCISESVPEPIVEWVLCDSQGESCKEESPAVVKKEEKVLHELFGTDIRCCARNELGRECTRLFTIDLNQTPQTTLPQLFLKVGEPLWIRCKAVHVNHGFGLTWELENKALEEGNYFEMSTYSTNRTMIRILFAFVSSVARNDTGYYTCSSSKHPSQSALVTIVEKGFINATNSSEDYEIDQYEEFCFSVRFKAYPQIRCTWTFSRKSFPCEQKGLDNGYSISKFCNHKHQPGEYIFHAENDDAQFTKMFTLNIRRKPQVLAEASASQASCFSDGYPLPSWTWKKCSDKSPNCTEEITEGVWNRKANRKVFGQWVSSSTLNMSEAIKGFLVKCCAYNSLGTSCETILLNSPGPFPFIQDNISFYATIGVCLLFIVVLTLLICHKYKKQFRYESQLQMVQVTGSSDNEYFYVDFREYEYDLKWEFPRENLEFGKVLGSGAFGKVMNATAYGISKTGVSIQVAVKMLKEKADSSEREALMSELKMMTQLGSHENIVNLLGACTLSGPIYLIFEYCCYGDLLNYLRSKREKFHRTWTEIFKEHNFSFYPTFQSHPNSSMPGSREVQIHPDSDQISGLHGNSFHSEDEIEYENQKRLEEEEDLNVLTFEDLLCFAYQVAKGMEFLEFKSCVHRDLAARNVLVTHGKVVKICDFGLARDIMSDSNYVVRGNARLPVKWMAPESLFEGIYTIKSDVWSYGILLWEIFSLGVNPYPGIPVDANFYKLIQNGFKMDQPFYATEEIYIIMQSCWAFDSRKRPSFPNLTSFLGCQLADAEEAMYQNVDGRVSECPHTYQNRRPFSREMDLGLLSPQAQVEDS
# ASSAY_INFO: FLT3 biochemical assay (ADP Hunter);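 further: FLT3 enzymatic activity quantified through the ADP produced by the kinase reaction, detected with an ADP Hunter readout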
# CONDITION_DETAILS: semi-quantitative class
pIC50: −log10 of the molar value.

MOLECULE: COc1cc(NC2CCOCC2)nc2c1nnn2-c1cccc(N(C)C)c1
pIC50: < 6.00
--
MOLECULE: FC(F)(F)Oc1cccc(-n2nnc3ccc(N4CCCC5(CCCN5)CC4)nc32)c1 (stereo not shown)
pIC50: > 7.00
--
MOLECULE: FC(F)(F)Oc1cccc(-n2nnc3ccc(N4CC5CNCC5C4)nc32)c1 (stereo not shown)
pIC50: < 6.00
--
MOLECULE: Oc1ccc(-n2nnc3ccc(NCC4CCNCC4)nc32)cc1
pIC50: 6.00 to 7.00
--
MOLECULE: FC(F)(F)Oc1cccc(-n2nnc3ccc(N4CCC5(CCNC5)CC4)nc32)c1
pIC50: < 6.00
--
MOLECULE: FC(F)(F)Oc1cccc(-n2nnc3ccc(N4CCC5(CCNCC5)C4)nc32)c1
pIC50: < 6.00
--
MOLECULE: FC(F)(F)Oc1cccc(-n2nnc3cc(Cl)c(N4CCCC5(CCCN5)CC4)nc32)c1 (stereo not shown)
pIC50: > 7.00
--
MOLECULE: COc1cc(NCC2CC3(CCNCC3)C2)nc2c1nnn2-c1cccc(N(C)C)c1
pIC50: < 6.00
--
MOLECULE: COCCN1CCC(CNc2ccc3nnn(-c4cccc(OC(F)(F)F)c4)c3n2)CC1
pIC50: < 6.00
--
MOLECULE: FC(F)(F)Oc1cccc(-n2nnc3ccc(NCCN4CCNCC4)nc32)c1
pIC50: 6.00 to 7.00
--
MOLECULE: CCN1CCC(CNc2ccc3nnn(-c4cccc(OC(F)(F)F)c4)c3n2)CC1
pIC50: < 6.00
--
MOLECULE: CNC1CCN(c2ccc3nnn(-c4cccc(OC(F)(F)F)c4)c3n2)CC1
pIC50: < 6.00
--
MOLECULE: FC(F)(F)c1csc(-n2nnc3ccc(NCC4CCNCC4)nc32)n1
pIC50: < 6.00
--
MOLECULE: COc1cc(NC2CC3(CCNCC3)C2)nc2c1nnn2-c1cccc(N(C)C)c1
pIC50: < 6.00
--
MOLECULE: FC(F)(F)c1cccc(-n2nnc3ccc(NCC4CCNCC4)nc32)c1
pIC50: < 6.00
--
MOLECULE: FC(F)(F)Oc1cccc(-n2nnc3ccc(N4CCCC5(CCNCC5)C4)nc32)c1
pIC50: < 6.00
--
MOLECULE: CCN1CCC2(CC1)CC(CNc1nc3c(cc1Cl)nnn3-c1cccc(OC(F)(F)F)c1)C2
pIC50: 6.00 to 7.00
--
MOLECULE: FC(F)(F)Oc1cccc(-n2nnc3ccc(N4CCC5(CC4)CNC5)nc32)c1
pIC50: < 6.00
--
MOLECULE: FCCN1CCC(CNc2ccc3nnn(-c4cccc(OC(F)(F)F)c4)c3n2)CC1
pIC50: < 6.00
--
MOLECULE: CC(C)N1CCC(CNc2ccc3nnn(-c4cccc(OC(F)(F)F)c4)c3n2)CC1
pIC50: < 6.00
--
MOLECULE: OCCCNc1ccc2nnn(-c3cccc(OC(F)(F)F)c3)c2n1
pIC50: < 6.00
--
MOLECULE: FC(F)(F)Oc1cccc(-n2nnc3ccc(NCC4CCN(Cc5ccncc5)CC4)nc32)c1
pIC50: < 6.00

----------
As shown below, each of these compounds has a reported % inhibiton at 1 uM FGFR1 value.
# System: panel of 24 kinases
# ASSAY_INFO: Kinase selectivity testing (percentage inhibition of 24 kinases at 1 μM)
# Type: biochemical
# CONDITION_DETAILS: proquinase, FGFR1, 1 uM

COMPOUND: OC1CCC(Nc2ccc3nnn(-c4cccc(OC(F)(F)F)c4)c3n2)CC1 (stereo in doubt) [2-47]
UNIT_SYMBOL: %
% inhibiton at 1 uM FGFR1: 0
--
COMPOUND: FC(F)(F)Oc1cccc(-n2nnc3ccc(NCC4CC5(CCNCC5)C4)nc32)c1 [2-67]
UNIT_SYMBOL: %
% inhibiton at 1 uM FGFR1: 0
--
COMPOUND: FC(F)(F)Oc1cccc(-n2nnc3ccc(N4CCCC5(CCCN5)CC4)nc32)c1 (stereo not shown) [2-65]
UNIT_SYMBOL: %
% inhibiton at 1 uM FGFR1: 22
--
COMPOUND: FC(F)(F)Oc1cccc(-n2nnc3ccc(NC4CC5(CCNCC5)C4)nc32)c1 [2-66]
UNIT_SYMBOL: %
% inhibiton at 1 uM FGFR1: 4
